Measured activity change, negative = inhibition, listed per entry for reference.
experiment: NFAT Signaling Pathway (AID 444); settings: Jurkat NFAT-bla M1, carbachol, beta-lactamase ratio, 5 h; at 7.69 µM (top of the series) unless noted;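 further: carbachol stimulus at about its EC50 of 1 µM final; on the % scale 0 is the no-effect control and ±100 the full control effect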
Records with an inconclusive call do not appear.
Write the number in % without appending the unit.

Task: Param item = `S=c1nc(-c2nc(=S)[nH]c3c2CCCCCCCCCC3)c2c([nH]1)CCCCCCCCCC2` ; retrieve measured activity change, negative = inhibition.
Result: 15.1

Task: Item: `COc1cc2ccc([C@H](C)NCC#N)cc2cc1OC`
Result: 9.37

Task: How about this compound: `Nc1nc(-c2ccccc2)c(CC(=O)O)s1`
Result: 18.8

Task: And the next one, `Cc1ccc(S(=O)(=O)N[C@H](CN)C(=O)O)cc1` ?
Result: 3.21

Task: Likewise for O=C(O)c1cccc(C(=O)O)c1S(=O)Cc1ccccc1 (configuration not stated) ?
Result: 7.39

Task: Then what about the compound `CC(C)C(=O)Cc1ccc2ccccc2n1` ?
Result: 12.2

Task: Could you do the same for `CCCc1cc(COC)c(C#N)c(=O)[nH]1` , please?
Result: -2.55

Task: `NCCSC[C@H](N)C(=O)O` ?
Result: 6.39

Task: Next record, please: `O=S(=O)(O)c1cc(N=Nc2cccc3ccccc23)c(O)c2ncccc12`
Result: 8.38

Task: Now consider `CN1CCN(c2ccc3nc(-c4ccc5nc(-c6ccc(O)cc6)[nH]c5c4)[nH]c3c2)CC1` and answer again.
Result: -8.32

Others:
Task: # lookup: activity change, negative = inhibition of `O=C(O)Cc1[nH]cnc1C(=O)O`
Result: 7.88

Task: How about this compound: `O=C(O)CSc1ccc([N+](=O)[O-])cc1[N+](=O)[O-]`
Result: -3.03

* * *

experiment: NFAT Signaling Pathway (AID 444); details: Jurkat NFAT-bla M1, carbachol, beta-lactamase ratio, 5 h; at 7.69 µM (top of the series) unless noted;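 further: carbachol stimulus at about its EC50 of 1 µM final; on the % scale 0 is the no-effect control and ±100 the full control effect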
Inconclusive results are not listed.
Entries and their measured activity change, negative = inhibition follow.
Quick reminder: number only, in %, skip the unit.

Solved entries (count: 2):
Task: Fill in: activity change, negative = inhibition of `Ic1ccc2c(c1)N(c1ccccc1)c1cc(Nc3ccc4nc5ccc(I)cc5[n+](-c5ccccc5)c4c3)ccc1N2` is ___
Result: -3.73

Task: Same read-out for `CO[C@@H]1/C=C\O[C@]2(C)Oc3c(C)c(O)c4c(O)c(c(CN(C)C)c(O)c4c3C2=O)NC(=O)/C(C)=C\C=C[C@@H](C)[C@@H](O)[C@H](C)[C@@H](O)[C@H](C)[C@H](OC(C)=O)[C@@H]1C` ?
Result: 17.6

Now take the following compound into account.
Task: What does the record list as activity change, negative = inhibition for `C[N@@+]1(CC[N@@+]2(C)CCC[C@H]2c2cccnc2)CCC[C@@H]1c1cccnc1` ?
Result: -16.4

* * *

molecular target: Cytochrome P450 1A2 (Homo sapiens); assay: p450-cyp1a2 (AID 410); conditions: recombinant CYP1A2, luciferin-ME demethylation, luminescence; series mostly up to 11.4 µM; further: potency means the concentration at half of the fitted maximal effect
Results filed as inconclusive are left out. Active and inactive are the calls of the source. The call rests on the fitted dose curve.
MEASURED_QUANTITY: Potency

Worked cases, Potency given:
Task: What does the data say about its Potency? Entry: `CSc1ncnc2c1ncn2CC(=O)[C@H]1CC[C@H]2[C@H]3CCC4=CC(=O)CC[C@@]4(C)[C@@H]3CC[C@@]12C`
Result: 3980 nM (active)

Task: Can you handle `C[C@H](CN(C)C)C(=O)c1ccccc1C(=O)O` next?
Result: inactive

Task: Try the molecule `O=C(O)[C@@H](Cc1c[nH]c2ccccc12)C(=O)NO`
Result: inactive

Task: Check `c1ccc(CCc2cccnc2)nc1` too.
Result: 398 nM (active)

Task: `O=C(O)CNc1ccc(C(=O)O)cc1` , same question.
Result: inactive

Task: Would you kindly repeat that for `O=C(O)/C(=C\c1ccccc1)c1ccccc1` ?
Result: inactive

Task: Also need `C[C@H](C(=O)c1ccccc1)[C@@H](c1ccccc1)N1CCOCC1` , thanks.
Result: inactive

Task: Next up: `O=C1/C(=C/c2cccnc2)SC(=S)N1Cc1ccco1`
Result: 501 nM (active)

Task: What about `C=C[C@H]1CN2CC[C@@H]1C[C@H]2[C@@H](O)c1ccnc2ccc(OC)cc12` ?
Result: inactive

Task: // same read-out, input: `CC(C)C[C@H](NC(=O)[C@@H](O)[C@@H](N)Cc1ccccc1)C(=O)O`
Result: inactive

Please examine the following record next.
Task: Which Potency reading was recorded for the molecule `O=C(SCc1cccc2ccccc12)c1ccc(Cl)cc1` ?
Result: 794 nM (active)

* * *

experiment: Cell Viability - LYMP2-015 (AID 971); conditions: LYMP2-015 lymphoblastoid cell viability; series mostly up to 92.2 µM;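 further: cells exposed to compound for 24 h; nearly all actives have a fitted effect of over 55% in size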
Records with an inconclusive call do not appear. Activity calls are given as the source filed them. Calls come from the whole dose curve; as a rule, active = well fitted cell-killing curve with a large enough effect; inconclusive = small, poorly fitted or top-dose-only effect; inactive = flat fitted curve, though single readings scatter.
In this exercise, the only acceptable responses are active, inactive

Take a look at these entries with their results.
Task: Fill in: this test's call for `CCCCCCCCOc1ccc(C(=O)O)cc1` is ___
Result: inactive

Task: Same lookup for `Cc1cccnc1` , please.
Result: inactive

Task: // next record `O=[N+]([O-])c1ccccc1Nc1ccccc1`
Result: inactive

Further cases:
Task: Tell me the recorded outcome of this test for `c1ccc(Nc2cccc3ccccc23)cc1` .
Result: inactive

Task: Also need `Nc1cc(C(=O)O)c(O)c(S(=O)(=O)O)c1` , thanks.
Result: inactive

Task: Next: `CC(C)S`
Result: inactive

Task: Entry to check: `CCCCNCC`
Result: inactive

Task: Moving on to the next compound: `CC(=O)CC(=O)Nc1ccccc1`
Result: inactive

Task: How about this compound: `C=C(C#N)C(=O)OCC`
Result: inactive

Task: And `O=[N+]([O-])c1ccc(F)cc1F` ?
Result: inactive

Task: Next: `C/C=C/C=C/C=O`
Result: active

Task: And for `CCCCCCN` ?
Result: inactive

Task: // query: `Oc1ccc2c(c1)OCO2`
Result: inactive

* * *

Target: Lysosomal acid glucosylceramidase (Homo sapiens) (UniProt P04062)
Sequence (P04062 whole entry, looked up): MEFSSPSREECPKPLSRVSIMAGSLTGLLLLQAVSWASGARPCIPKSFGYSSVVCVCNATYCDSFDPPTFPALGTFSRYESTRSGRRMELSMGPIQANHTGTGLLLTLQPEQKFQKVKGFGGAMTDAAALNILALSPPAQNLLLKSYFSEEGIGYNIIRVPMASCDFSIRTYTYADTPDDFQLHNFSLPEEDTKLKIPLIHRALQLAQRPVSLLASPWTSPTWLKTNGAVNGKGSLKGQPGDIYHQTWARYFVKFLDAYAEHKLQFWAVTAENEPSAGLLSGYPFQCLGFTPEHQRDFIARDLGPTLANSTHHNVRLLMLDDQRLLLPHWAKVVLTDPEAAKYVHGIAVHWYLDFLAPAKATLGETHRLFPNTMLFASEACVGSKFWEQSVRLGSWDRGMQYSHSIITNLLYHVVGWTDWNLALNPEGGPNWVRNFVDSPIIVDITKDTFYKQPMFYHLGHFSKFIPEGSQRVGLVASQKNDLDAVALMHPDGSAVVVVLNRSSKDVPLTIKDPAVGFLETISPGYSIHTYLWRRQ
Test: Glucocerebrosidase-p2 (AID 348); further: potency means the concentration at half of the fitted maximal effect
Details: purified GBA, blue fluorogenic substrate, 40 min
Description: Beta-glucocerebrosidase catalyzes the hydrolysis of beta-glucocerebroside to glucose and ceramide. The inherited deficiency of beta-glucocerebrosidase results in Gaucher disease, which is characterized by a wide variety of symptoms including hepatosplenomegaly, anemia, thrombocytopenia, bony lesions and bone marrow infiltration with characteristic storage cells, known as Gaucher cells. […] Blue fluorescence substrate assay: […] Read the plate in Viewlux plate reader (Ex=365(10) and Em=440(10)).
The source made the active and inactive calls. No stated cut-off is given here; in the data, active means potency below about 10 µM; inactive means the rest.
MEASURED_QUANTITY: Potency

Answered examples (5):
Task: # lookup: Potency of `Cc1cc2sc(C)[n+](CCCOS(=O)(=O)O)c2cc1C`
Result: > 11.4 µM (inactive)

Task: And for `C/C(=N/Nc1ccc2ccccc2n1)c1ccccc1O` ?
Result: > 11.4 µM (inactive)

Task: Same question for `CC(C)(CCc1nc2ccccc2[nH]1)C(=O)O` please.
Result: > 11.4 µM (inactive)

Task: And for `OC(Cc1ccccc1)(Cc1ccccc1)c1ccccc1` ?
Result: > 11.4 µM (inactive)

Task: Okay, and `Cc1cc(O)c(C(C)C)cc1CN1CCCCC1` ?
Result: > 11.4 µM (inactive)

---
Task: Param item = `C[C@@H](N)[C@@H](C)Cc1ccccc1` ; retrieve measured Potency.
Result: > 11.4 µM (inactive)

Task: Proceed to `NCS(=O)(=O)O`
Result: > 11.4 µM (inactive)

Task: Now consider `O=C(O)c1ccccc1-c1ccccc1C(=O)c1ccccc1` and answer again.
Result: > 11.4 µM (inactive)

Task: Also need `C[C@@]12C[C@H](O)[C@@H]3[C@H](CCC4=CC(=O)CC[C@]43C)[C@H]1CC[C@@H]2c1csc(N)n1` , thanks.
Result: > 11.4 µM (inactive)

Task: Another compound to look at: `N=C(N)SCCSC(=N)N`
Result: > 11.4 µM (inactive)

Task: Also need `Nc1nc(N)c2nn(-c3ccc(C(=O)O)cc3)nc2n1` , thanks.
Result: > 11.4 µM (inactive)

Task: Also `O=C(O)CCCc1ccc2ccc3ccccc3c2c1` ?
Result: > 11.4 µM (inactive)

* * *

experiment: qHTS assay to identify small molecules that stimulate interleukin-8 (IL-8) secretion (AID 651758); conditions: HTRF ratio (665/615); series mostly up to 92.2 µM; on activation: 0% is about no effect
Records with an inconclusive call do not appear. Calls of active or inactive are those of the source. The call rests on the fitted dose curve; in most records, active means well fitted activation curve with a large enough effect in the signal ratio; inconclusive means small, poorly fitted or top-dose-only effect, or effect the other way, or a change in a side signal; inactive means flat fitted curve, though single readings scatter; the % refers to the signal ratio.
Assign a class; possible classes are active, inactive

Solved cases (10 shown):
Task: Recorded test outcome, item `Nc1ccccc1O`
Result: active

Task: Then CCOC(=O)C1OC1c1ccccc1 (stereo not given) ?
Result: active

Task: Proceed to `c1ccc(COCc2ccccc2)cc1`
Result: inactive

Task: Try `CN(C)c1ccc(C(=N)c2ccc(N(C)C)cc2)cc1` next.
Result: active

Task: // repeat for `CC1=C(/C=C/C(C)=C/C=C/C(C)=C/C=O)C(C)(C)CCC1` and report
Result: active

Task: Also check `CCCCCCc1ccc(-c2ccc(C#N)cc2)cc1`
Result: inactive

Task: Item: `Oc1ccc2c(c1)OCO2`
Result: inactive

Task: What do you have for CCC(Cl)CC(Cl)C(Cl)C(Cl)C(Cl)C(C)Cl (stereo not given) ?
Result: inactive

Task: Now the molecule `CCN(CC)c1ccc(N)cc1`
Result: active

Task: Further, for `CC(C)COC(=O)COc1cc(Cl)c(Cl)cc1Cl` ?
Result: inactive

Continuing:
Task: Identify the outcome logged in this assay for the molecule shown: `Cc1ccc(S(N)(=O)=O)cc1`
Result: inactive

Task: Also check `O=C(OCc1ccccc1)c1ccccc1O`
Result: inactive
